EXPERIMENTAL READOUT: glass transition temperature (°C)
Give the quantity in °C, number only.

| MOLECULE | glass transition temperature, °C |
| --- | --- |
| *c1ccc(C(=O)OCCCCCCCCCCOc2ccc(/C=C3\CC/C(=C\c4ccc(OCCCCCCCCCCOC(=O)c5ccc(-c6nnc(*)o6)cc5)cc4)C3=O)cc2)cc1 (repeat unit) | 58.00 |

Report glass transition temperature for *c1ccc(Oc2ccc(-c3nc4cc(Oc5ccc6nc(*)c(-c7ccccc7)nc6c5)ccc4nc3-c3ccccc3)cc2)cc1 (repeat unit) please. 243.00

Report glass transition temperature for *c1ccc(C(=O)Oc2c(C)cc(C(c3cccnc3)c3cc(C)c(OC(=O)c4ccc(N5C(=O)CC(Nc6ccc(Cc7ccc(NC8CC(=O)N(*)C8=O)cc7)cc6)C5=O)cc4)c(C)c3)cc2C)cc1 (repeat unit) please. 186.00

Report glass transition temperature for *CC(*)(C)C(=O)OCc1cccc(Cl)c1Cl (repeat unit) please. 42.60

Report glass transition temperature for *OC(C)CCCCC(*)=O (repeat unit) please. -40.00

Report glass transition temperature for *OC(C)COCC(C)OC(=O)c1ccccc1C(*)=O (repeat unit) please. 25.00

Report glass transition temperature for *Oc1ccc(-c2ccc(OC(=O)c3cc(/N=N/c4ccc(OCC)cc4)ccc3-c3ccc(/N=N/c4ccc(OCC)cc4)cc3C(*)=O)cc2)cc1 (repeat unit) please. 165.00

Report glass transition temperature for *CCN(*)C(=O)C(C)C (repeat unit) please. 30.00

Report glass transition temperature for *CC(*)(C)C(=O)OC(F)(F)C(F)(F)C(F)(F)C(F)(F)C(F)(F)C(F)(F)C(F)(F)C(F)(F)F (repeat unit) please. 49.00

Report glass transition temperature for *Oc1ccc(OC(=O)c2ccc(C(*)=O)cc2Oc2ccc(Br)cc2)cc1 (repeat unit) please. 108.00

---

glass transition temperature reference
Give the quantity in °C, number only.

| COMPOUND | glass transition temperature, °C |
| --- | --- |
| *Sc1cccc2c1C(=O)N(c1ccc(Oc3ccc(N4C(=O)c5cccc(*)c5C4=O)cc3)cc1)C2=O (repeat unit) | 287.00 |
| *c1ccc(-c2ccc(N3C(=O)c4cc5c(cc4C3=O)C(C(F)(F)F)(C(F)(F)F)c3cc4c(cc3O5)C(=O)N(*)C4=O)cc2C(F)(F)F)c(C(F)(F)F)c1 (repeat unit) | 420.00 |

Now for a further compound.
Report glass transition temperature for *Sc1ccc2c(c1)C(=O)N(c1ccc(N3C(=O)c4cccc(*)c4C3=O)cc1)C2=O (repeat unit) please. 319.50

---

± gives the standard deviation of the reports.
glass transition temperature reference

Answered examples (10):
| MOLECULE | glass transition temperature |
| --- | --- |
| *CC(*)(C)C(=O)OCCCCCCCC (repeat unit) | -11.00 °C |
| *C1CCC(*)C1 (repeat unit) | 65.10 °C |
| *CCCCCCOC(=O)C(CCCCP(=O)(OCC)OCC)C(=O)OCCCCCCOc1ccc(-n2on2-c2ccc(O*)cc2)cc1 (repeat unit) | 4.00 °C |
| *CCCCCCS(=O)(=O)c1ccc(/N=N/c2ccc(N(C)CCCCCC(=O)O*)cc2)cc1 (repeat unit) | 60.50 °C |
| *C(=O)c1cc2c(cc1Cl)C(=O)N(c1cccc(N3C(=O)c4cc(*)c(Cl)cc4C3=O)c1)C2=O (repeat unit) | 313.00 °C |
| *C(=O)c1ccc2c(c1)C(=O)N(c1ccc(N3C(=O)c4ccc(*)cc4C3=O)cc1)C2=O (repeat unit) | 325.00 ± 11 °C |
| *c1ccc(Oc2ccc(-c3cc(-c4cccc(-c5cc(*)c6ccccc6n5)c4)nc4ccccc34)cc2)cc1 (repeat unit) | 268.00 °C |
| *CC(*)C(=O)Oc1ccc(-c2ccccc2)cc1 (repeat unit) | 110.00 °C |
| *c1ccc2c(c1)C(=O)N(c1ccc(OCCCCCCOc3ccc(N4C(=O)c5ccc(C(*)(C(F)(F)F)C(F)(F)F)cc5C4=O)cc3)cc1)C2=O (repeat unit) | 167.00 °C |
| *Oc1ccc(C(c2ccc(Oc3ccc(C(=O)c4cccc(-c5cccc(C(=O)c6ccc(*)cc6)c5)c4)cc3)cc2)(C(F)(F)F)C(F)(F)F)cc1 (repeat unit) | 159.00 °C |

Report glass transition temperature for *CCCCCCCCCCC(=O)Nc1ccc(NC(=O)CCCCCCCCCCN2C(=O)c3ccc(C(=O)c4ccc5c(c4)C(=O)N(*)C5=O)cc3C2=O)cc1 (repeat unit) please. 125.00 °C

Report glass transition temperature for *CCCCCCC(=O)N* (repeat unit) please. 52.00 °C

Report glass transition temperature for *CC(C)(C)C1C(=O)N(C(C)C)C(=O)C1* (repeat unit) please. 145.00 °C

Report glass transition temperature for *O[Si](C)(C)O[Si](*)(C)CCCCOc1ccc(-c2ccc(C#N)cc2)cc1 (repeat unit) please. -5.50 °C

Report glass transition temperature for *Oc1ccc(NC(=O)c2cccc(C(=O)Nc3ccc(Oc4ccc(C(C)(C)c5cccc(C(C)(C)c6ccc(*)cc6)c5)cc4)cc3)c2)cc1 (repeat unit) please. 180.00 °C

Report glass transition temperature for *Oc1ccc(NC(=O)/C=C/C(=O)NNC(=O)/C=C/C(=O)Nc2ccc(OC(=O)/C=C/C(=O)NNC(=O)/C=C/C(*)=O)cc2)cc1 (repeat unit) please. 265.00 °C

---

EXPERIMENTAL READOUT: glass transition temperature (°C)
Give the quantity in °C, number only.

| COMPOUND | glass transition temperature (°C) |
| --- | --- |
| *c1ccc2c(c1)C(CCCCCC)(CCCCCC)c1cc(-c3ccc4c(c3)C(CC3=NC(Cc5ccccc5)CO3)(CC3=NC(Cc5ccccc5)CO3)c3cc(*)ccc3-4)ccc1-2 (repeat unit) | 114.00 |

Report glass transition temperature for *c1ccc(-c2ccc3c(c2)C(CCCCCCBr)(CCCCCCBr)c2cc(*)ccc2-3)cc1 (repeat unit) please. 122.00

Report glass transition temperature for *c1ccc(-c2ccc(-n3c(=O)c4c(C(F)(F)F)c5c(=O)n(*)c(=O)c5c(C(F)(F)F)c4c3=O)cc2C(F)(F)F)c(C(F)(F)F)c1 (repeat unit) please. 304.00

Report glass transition temperature for *CC(*)(C)C(=O)OCCCCOc1ccc(/N=N/c2ccc(C#N)cc2)cc1 (repeat unit) please. 80.00

---

glass transition temperature reference
Give the quantity in °C, number only.

Answered examples (3):
| COMPOUND | UNITS | glass transition temperature |
| --- | --- | --- |
| *CCCC1(CCCNC(=O)CCC2(CCC(=O)N*)c3ccccc3-c3ccccc32)c2ccccc2-c2ccccc21 (repeat unit) | °C | 165.00 |
| *O[Si](C)(C)C#C[Si](C)(C)C#C[Si](C)(C)C#C[Si](C)(C)C#C[Si](*)(C)C (repeat unit) | °C | -23.00 |
| *CCCCCCOC(=O)c1cc(OCCCCCCOc2ccc(/N=N/c3ccc(C#N)cc3)cc2)cc(C(=O)OCCCCCCN2C(=O)c3ccc(-c4ccc5c(c4)C(=O)N(*)C5=O)cc3C2=O)c1 (repeat unit) | °C | 93.00 |

Now for a further compound.
Report glass transition temperature for *O[Si](C)(C)OC(CCl)COc1ccc(C(C)(C)c2ccc(OCC(*)CCl)cc2)cc1 (repeat unit) please. 24.00

---

EXPERIMENTAL READOUT: glass transition temperature (°C)
Give the quantity in °C, number only.

| MOLECULE | glass transition temperature (°C) |
| --- | --- |
| *CC(*)(Cl)C(=O)OCCCC (repeat unit) | 42.00 |

Report glass transition temperature for *CCN(CCOC(=O)/C=C/c1ccc(/C=C/C(=O)O*)cc1)c1ccc(/N=N/c2ccc([N+](=O)[O-])cc2)cc1 (repeat unit) please. 120.00

Report glass transition temperature for *Nc1cc(NC(=O)c2ccc(C(*)=O)cc2)cc(C(=O)Oc2cccc3ccccc23)c1 (repeat unit) please. 192.00

Report glass transition temperature for *CC(F)(F)C1(F)CC(CC(O)(C(F)(F)F)C(F)(F)F)CC1* (repeat unit) please. 98.00

---

glass transition temperature reference
Give the quantity in °C, number only.

| COMPOUND | glass transition temperature (°C) |
| --- | --- |
| *CCOCCOC(=O)CCCCCCC(=O)O* (repeat unit) | -66.00 |

Now for a further compound.
Report glass transition temperature for *CCCCCCOc1c(OC)cc(/C=C/c2ccc(/C=C/c3cc(OC)c(O*)c(OC)c3)cc2)cc1OC (repeat unit) please. 90.00

---

Define the label as true when glass transition temperature is strictly less than 200 °C and as false in all remaining cases.

Reference set (2 entries):
| COMPOUND | LABEL CLASS |
| --- | --- |
| *Oc1ccc(S(=O)(=O)c2ccc(Oc3ccc(C(C)(C)c4ccc(*)c(N)c4)cc3N)cc2)cc1 (repeat unit) | false |
| *c1ccc(Oc2ccccc2Oc2ccc(-n3c(=O)c4cc5c(=O)n(*)c(=O)c5cc4c3=O)cc2)cc1 (repeat unit) | false |

Please let me know if *CC(=O)Nc1ccc(Oc2ccc(NC(=O)c3ccc4c(c3)C(=O)N(*)C4=O)cc2)cc1 (repeat unit) shows glass transition temperature below 200 °C. false
